Provenance of the data: PubChem BioAssay (NCATS)

assay: qHTS of pediatric cancer cell lines to identify multiple opportunities for drug repurposing: Confirmatory screen for control Hh wild type fibroblast cells (AID 1347121); conditions: viability qHTS; series mostly up to 45.9 µM; note: nearly all actives have a fitted effect of over 70% in size
Results filed as inconclusive are left out. Calls of active or inactive are those of the source. Calls come from the whole dose curve; as a rule, active = well fitted cell-killing curve with a large enough effect; inconclusive = small, poorly fitted or top-dose-only effect, or effect the other way; inactive = flat fitted curve, though single readings scatter.
The reply should be one of these categories: 1 (active), 0 (inactive)

Worked examples follow.
Cc1ccc2nc(NC(=O)CSc3nc4c(c(=O)n3-c3ccccc3)SCC4)sc2c1	1
CNC(=O)c1nn(C)c2c1C(C)(C)Cc1cnc(Nc3ccc(N4CCN(C)CC4)cc3)nc1-2	0
NC(=O)c1cccc2cn(-c3ccc([C@@H]4CCCNC4)cc3)nc12	0

Field: next molecule
Could you check what this test reported for C=C1C(=CC=C2CCC[C@]3(C)[C@@H]([C@H](C)C=C[C@H](C)C(C)C)CC[C@@H]23)C[C@@H](O)C[C@@H]1O ?
0

###

experiment: Quantitative High-Throughput drug screen in 47 multiple myeloma cell lines against the NCATS MIPE library collection: XG6_PLB cell viability assay (AID 1919865); details: XG6 myeloma viability, CellTiter-Glo ATP luminescence, 48 h; series mostly up to 45.8 µM; note: nearly all actives have a fitted effect of over 40% in size
Results filed as inconclusive are left out. Active and inactive are the calls of the source. The call rests on the fitted dose curve; in most records, active means well fitted cell-killing curve with a large enough effect; inconclusive means small, poorly fitted or top-dose-only effect, or effect the other way; inactive means no such curve, though single readings can be large or run the other way.
Classes to choose from: class 1 = active, class 0 = inactive

Some entries whose results are on file:
CC(C)(C)NC(=O)[C@H]1CN(Cc2cccnc2)CCN1C[C@@H](O)C[C@@H](Cc1ccccc1)C(=O)N[C@H]1c2ccccc2C[C@H]1O	class 1
Nc1ccc(S(=O)(=O)Nc2ncccn2)cc1	class 0
CCCCOc1c(C(=O)c2c(F)cc(C)cc2F)cnc2n[nH]cc12	class 1
COc1ccc(F)c(F)c1C(=O)c1cnc(NC2CCN(S(C)(=O)=O)CC2)nc1N	class 1
Cn1c2cc(S(C)=O)sc2c2cnn(Cc3cccc(N)c3)c(=O)c21 (stereo unspecified)	class 0

Please look at the following compound next.
Look up the recorded call for O=C(CCCCCCNC(=O)c1cnc(N(c2ccccc2)c2ccccc2)nc1)NO in this test.
class 1

###

experiment: Quantitative High-Throughput drug screen in 47 multiple myeloma cell lines against the NCATS MIPE library collection: MM1R_ATCC cell viability assay (AID 1918981); details: MM1R multiple myeloma cells, CellTiter-Glo viability, 48 h; series mostly up to 45.8 µM; note: nearly all actives have a fitted effect of over 35% in size
Inconclusive results are not listed. Calls of active or inactive are those of the source. The call rests on the fitted dose curve; in most records, active means well fitted cell-killing curve with a large enough effect; inconclusive means small, poorly fitted or top-dose-only effect, or effect the other way; inactive means no such curve, though single readings can be large or run the other way.
Select the matching outcome among active, inactive

Worked examples follow.
COc1cc(C(=O)NS(=O)(=O)c2ccccc2C)ccc1Cc1cn(C)c2ccc(NC(=O)OC3CCCC3)cc12	active
CCn1cc(-c2ccnc3[nH]c(-c4cccc(CN(C)C)c4)cc23)c(-c2ccc(NC(=O)N(C)C)cc2)n1	active
CN1CCC(CNc2ccc3ncc(-c4cccc(OC(F)(F)F)c4)n3n2)CC1	active
CC1(C)OC2=C(C(=O)c3ccccc3C2=O)[C@H](NCc2ccccc2)[C@H]1O	active
Clc1cccc(-n2nnnc2NCc2ccccc2Oc2ccccn2)c1Cl	inactive

Tell me the recorded outcome of this test for Cc1ccc(CN2CCNCC2)cc1NC(=O)CNc1ccc(F)c(F)c1 .
active

Try this compound next: COc1ccc(CC2SC(=O)NC2=O)cc1C(=O)NCc1ccc(C(F)(F)F)cc1 (stereo unspecified)
inactive

What do you get for CN1c2cc(O)c(N=NC(N)=O)cc2CC1S(=O)(=O)O (stereo unspecified) ?
inactive

Check Cc1cc(CN2CCN(c3c(Br)cnc4nc(-c5ccc(N6CCN(C)CC6)cc5)[nH]c34)CC2)no1 too.
active

Record: Cc1c(CN2CCN(S(C)(=O)=O)CC2)sc2c(N3CCOCC3)nc(-c3cnc(N)nc3)nc12
active

Repeat with CC(C)(C)c1cnc(CSc2cnc(NC(=O)C3CCNCC3)s2)o1
active

###

system: Zika virus NS2B-NS3 protease (unlinked complex); experiment: Primary screen GU Rhodamine qHTS for Zika virus inhibitors: Unlinked NS2B-NS3 protease assay (AID 1347159); conditions: Recombinant ZIKV NS2B-NS3 protease, Rhodamine110 substrate fluorescence; series mostly up to 107 µM; note: nearly all actives have a fitted effect of over 60% in size
Results filed as inconclusive are left out. Activity calls are given as the source filed them. Calls come from the whole dose curve; as a rule, active = well fitted inhibition curve with a large enough effect; inconclusive = small, poorly fitted or top-dose-only effect; inactive = no such curve, though single readings can be large or run the other way.
# output must be one of label 1 for active, label 0 for inactive

Previously resolved entries follow.
CC(C)c1nn(-c2c(Cl)cccc2Cl)c2nc(Cc3ccc(OCCO)cc3)[nH]c(=O)c12	label 0
COc1ccc2c(OCc3nnc4ccc(-c5ccccc5)nn34)ccnc2c1	label 0
O=C(O)C1(Cc2cccc(Nc3nccs3)n2)CCC(Oc2cccc(Cl)c2F)CC1 (centres undefined)	label 1
C=CCn1c(=O)c2cnc(Nc3ccc(N4CCN(C)CC4)cc3)nc2n1-c1cccc(C(C)(C)O)n1	label 0
Cc1ccc(C(=O)Nc2ccc(CN3CCN(C)CC3)c(C(F)(F)F)c2)cc1C#Cc1cnc2cccnn12	label 0
CC1(C)CCC(c2ccc(Cl)cc2)=C(CN2CCN(c3ccc(C(=O)NS(=O)(=O)c4ccc(N[C@H](CCN5CCOCC5)CSc5ccccc5)c(S(=O)(=O)C(F)(F)F)c4)cc3)CC2)C1	label 1
CS(=O)(=O)N1CCN(Cc2cc3nc(-c4cccc5[nH]ncc45)nc(N4CCOCC4)c3s2)CC1	label 0
c1ccc2c(CCNc3ccc(Nc4ccncc4)cc3)c[nH]c2c1	label 0

Consider now this further compound.
Fill in: this test's call for NCC(=O)Nc1ccc(-n2nc(C(F)(F)F)cc2-c2ccc3c(ccc4ccccc43)c2)cc1 is ___
label 0

###

test: Cell Proliferation Assay against the HBL1 Cell Line (AID 651646); details: HBL1 DLBCL cells; at 46.1 µM (top of the series);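 note: cells exposed to compound for 48 h before reading; 100% = DMSO and 0% = 9.2 µM bortezomib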
recordedEndpoint: viability, percent of control (%)
Enter your answer as a number in %; do not include the unit.

Record excerpt, results attached:
CCOc1cc2ncc(C#N)c(Nc3ccc(F)c(Cl)c3)c2cc1NC(=O)C=CCN(C)C	2.39
Cc1cn2c(-c3cn[nH]c3)cnc2c(Nc2ccc(C(=O)N3CCNCC3)cc2F)n1	85.6
c1ccc2c(CCNc3ccc(Nc4ccncc4)cc3)c[nH]c2c1	22.1
O=C(O)c1ccc2c(c1)nc(Nc1cccc(Cl)c1)c1ccncc12	32.2
CC[C@@H]1C(=O)N(C)c2cnc(Nc3ccc(C(=O)NC4CCN(C)CC4)cc3OC)nc2N1C1CCCC1	5.81
CN1CCN(c2ccc3nc(-c4c(N)c5c(F)cccc5[nH]c4=O)[nH]c3c2)CC1	0.538

What viability, percent of control value was documented for this compound, O=C(O)[C@H](Cc1c[nH]c2ccccc12)N1C(=O)c2ccccc2C1=O ?
130

Same again, this time with NC(=O)c1c(OCc2c(F)cc(Br)cc2F)nsc1NC(=O)NCCCCN1CCCC1
4.14

Note, next up: Nc1nccc(Oc2ccc(NC(=O)c3c[nH]cc(-c4ccc(F)cc4)c3=O)cc2F)c1Cl
14.4

And the next one, N#Cc1c(O)c2c(-c3ccc(-c4ccccc4O)cc3)csc2[nH]c1=O ?
114

Likewise for CC(=O)c1c(C)c2cnc(Nc3ccc(N4CCNCC4)cn3)nc2n(C2CCCC2)c1=O ?
1.52

###

Test: Quantitative High-Throughput drug screen in 47 multiple myeloma cell lines against the NCATS MIPE library collection: MMM1_PLB cell viability assay (AID 1918976); note: potency is the fitted concentration of half-maximal effect; nearly all actives have a fitted effect of over 35% in size
Settings: MMM1 myeloma cells viability, CellTiter-Glo, 48 h; series mostly up to 45.8 µM
From the text: PI: Beverly A. Mock Ph.D. Laboratory of Cancer Biology and Genetics, Center for Cancer Research, National Cancer Institute, National Institute of Health, Bethesda, Maryland […] 5; Detector; 425V; Luminescence; Viewlux PerkinElmer. […] 1. […] Briefly, the corresponding myeloma cell lines were screened in 1,536-well plates with 500 cells, 5-uL per well for inhibition of cell viability (assessed by measuring ATP levels with CellTiterGlo). […]
Inconclusive results are not listed. Active and inactive are the calls of the source. Calls follow the shape of the dose curve; as a rule, active = well fitted cell-killing curve with a large enough effect; inconclusive = small, poorly fitted or top-dose-only effect, or effect the other way; inactive = no such curve, though single readings can be large or run the other way.
Item-by-item account of Potency

Guide cases for Potency, answers given:
O=C(O)c1ccc2cc(-c3ccc(O)c(C45CC6CC(CC(C6)C4)C5)c3)ccc2c1	18.7 µM (active)
CC(C)c1nn(-c2c(Cl)cccc2Cl)c2nc(Cc3ccc(OCCO)cc3)[nH]c(=O)c12	0.148 µM (active)
C[C@@H]1COC(Nc2ccc3ncnc(Nc4ccc(OCc5nccs5)c(Cl)c4)c3c2)=N1	23.5 µM (active)
Cc1cc(N2CCOCC2)cc2[nH]c(-c3c(NC[C@@H](O)c4cccc(Cl)c4)cc[nH]c3=O)nc12	0.166 µM (active)
CC(C)c1cc(-c2n[nH]c(=O)n2-c2ccc3c(ccn3C)c2)c(O)cc1O	0.0743 µM (active)

Which value of Potency has been reported for CC(=O)Nc1nc(C)c(-c2ccc(Cl)c(S(=O)(=O)NCCO)c2)s1 in the records?
5.9 µM (active)

How about C=CC(=O)Nc1cc2c(Nc3ccc(F)c(Cl)c3)ncnc2cc1C#CC(C)(C)N1CCN(C)CC1 ?
5.26 µM (active)

Input CC1=C(CO)C(=O)O[C@@H]([C@@H](C)[C@H]2CC[C@H]3[C@@H]4C[C@H]5O[C@]56[C@@H](O)C=CC(=O)[C@]6(C)[C@@H]4CC[C@]23C)C1
0.833 µM (active)

Here is the next compound: CCNC(=O)Nc1ccc2ncc(Nc3ccc(C)cc3)nc2n1
14.8 µM (active)

Now give it for CCCCCN(CCC12CC3CC(CC(C3)C1)C2)C(=O)NCCCc1ccncc1 too.
20.9 µM (active)

Can you check CCN1CCN(CC(=O)Nc2ccc(-c3cccc4c(=O)cc(N5CCOCC5)oc34)c3sc4ccccc4c23)CC1 next?
2.35 µM (active)

Let us now turn to Nc1ccc(C(=O)c2cc3c(ccc4ccccc43)[nH]2)cc1
6.62 µM (active)

Another compound to check: C[C@]1(CO)CN(c2cc(C(=O)Nc3ccc4c(c3)-c3c(c(C(N)=O)nn3-c3ccc(F)cc3)CC4)c(Cl)cn2)C[C@@]1(C)CO
14.8 µM (active)

Repeat with COc1ccc(-c2cc3c(C)nc(N)nc3n(C3CCC(OCCO)CC3)c2=O)cn1 (configuration not stated)
0.0148 µM (active)

Subsequent entry: C1=CCOCc2cc(ccc2OCCN2CCCC2)Nc2nccc(n2)-c2cccc(c2)OCC1
3.32 µM (active)

Next compound: CNC(=O)c1nn(C)c2c1C(C)(C)Cc1cnc(Nc3ccc(N4CCN(C)CC4)cc3)nc1-2
11.8 µM (active)

Same thing, different compound: COC(=O)c1ccc2c(C(=Nc3ccc(N(C)C(=O)CN4CCN(C)CC4)cc3)c3ccccc3)c(O)[nH]c2c1
7.43 µM (active)

CNC(=O)c1c(F)cccc1Nc1nc(Nc2cc3c(cc2OC)CCN3C(=O)CN(C)C)nc2[nH]ccc12 ?
0.0469 µM (active)

Let us now turn to Cc1cc(Nc2nc(N[C@@H](C)c3ccc(F)cc3)c(C#N)cc2F)n[nH]1
6.62 µM (active)
